- System: HSV-1 KOS strain
- assay-name: Synergistic studies of acyclovir and the title compound of example 9 in the cell culture assay, HSV-1 KOS strain
- Type: cell-based, Herpes simplex virus type 1
- run-parameters: ACV + 0.05 μM of TC, MOI = 0.05 PFU/cell, read-out: EC50 of ACV in combination
measured-quantity: pEC50
Scale for pEC50: -log10 of concentration given in mol/L; no unit attached.

Find the recorded pEC50 belonging to `Nc1nc2c(ncn2COCCO)c(=O)[nH]1` and report it.
5.20
